This collection of values is drawn from the supplement of paper PMC10126150.

Tested on: ATP;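 also: ATP exposure 15 min at 22 °C before imaging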
Assay Details: switch fluorescence ratio, 500 uM ATP over buffer (Cy3 cluster intensity, sum of 5 cycles each) (fold (ratio)); higher = stronger signal-on switching upon ATP binding; sequences stand for … in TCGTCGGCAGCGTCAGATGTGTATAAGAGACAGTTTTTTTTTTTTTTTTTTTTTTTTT…TC
Assay Setup: aptamer strand: ATP DNA aptamer (quencher-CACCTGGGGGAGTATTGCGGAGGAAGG + anchor), 100 nM annealed; ATP concentration: 500 uM
Listing: switch fluorescence ratio of selected sequences
No unit in the answer, only the number.

Consider the following illustrative entries.
| Biosequence | Target Or System | switch fluorescence ratio |
| --- | --- | --- |
| AGGCTCTAAG | ATP | 1.01 |
| CTGTAGGGGC | ATP | 1.09 |
| GATTTTCAGT | ATP | 0.975 |

Provide one value: measured switch fluorescence ratio of `CCGCAGAGTG`
3.98

Provide one value: measured switch fluorescence ratio of `GGGGCTTGGG`
0.989
